Molecular target: MreCA (Malassezia restricta)
Construct: gene can; recombinant from synthetic gene in pET100D-Topo, E. coli BL21(DE3) codon plus; N-terminal His6-tag fusion, 27 kDa on SDS-PAGE; no tag cleavage told
Sequence (A0A3G2S4B9 1-238): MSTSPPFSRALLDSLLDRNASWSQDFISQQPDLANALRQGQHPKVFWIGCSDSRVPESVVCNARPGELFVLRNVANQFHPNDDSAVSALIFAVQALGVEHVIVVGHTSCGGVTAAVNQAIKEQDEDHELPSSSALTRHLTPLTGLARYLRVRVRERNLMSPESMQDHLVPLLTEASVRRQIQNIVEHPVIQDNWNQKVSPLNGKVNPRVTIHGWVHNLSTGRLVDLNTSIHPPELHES
Assay: stopped-flow CO2 hydrase assay
Format: biochemical
Conditions: read-out: MreCA

- MOLECULE: "Nc1ccc(S(=O)(=O)NCc2ccc(S(N)(=O)=O)cc2)cc1 [compound 23, 23]"
  Ki: "> 10 µM"
- MOLECULE: "Nc1ccc(S(=O)(=O)NCCc2ccc(S(N)(=O)=O)cc2)cc1 [compound 24, 24]"
  Ki: "> 10 µM"
- MOLECULE: "NS(=O)(=O)c1cc(Cl)cc(Cl)c1O [compound 10, 10]"
  Ki: "> 10 µM"
- MOLECULE: "NC(N)=Nc1nc(CSCCC(N)=NS(N)(=O)=O)cs1 [FAM]"
  Ki: "> 10 µM"
